test system: NCI-H292; test: Cytotoxicity against human NCI-H292 cells after 72 hrs by MTT assay; format: functional, cell-based; settings: NCI-H292, 72 h
reported-property: log10 of IC50 (log10 of the value in nM)
The common logarithm of IC50 in nM is what is listed.

Use the examples below as a reference point.
Query: log10 of IC50; subject: `C/C=C(/C)C(=O)OC[C@H]1c2c(O)c(OC)c(C)c(OC(=O)c3ccccn3)c2C[C@H]2[C@H]3C4=C(C[C@H]([C@H](C#N)N12)N3C)C(=O)C(C)=C(OC)C4=O`
2.01

Query: log10 of IC50; subject: `C/C=C(/C)C(=O)OC[C@H]1c2c(O)c(OC)c(C)c(OC(=O)CNC(=O)OC(C)(C)C)c2C[C@H]2[C@H]3C4=C(C[C@H]([C@H](C#N)N12)N3C)C(=O)C(C)=C(OC)C4=O`
1.00

Query: log10 of IC50; subject: `COC1=C(C)C(=O)C2=C(C1=O)[C@@H]1[C@@H]3CC4=C(C(=O)C(OC)=C(C)C4=O)[C@H](CO)N3[C@@H](C#N)[C@@H](C2)N1C`
2.34

More entries:
Query: log10 of IC50; subject: `C/C=C(/C)C(=O)OC[C@H]1c2c(O)c(OC)c(C)c(OC(=O)c3ccc(Br)cc3)c2C[C@H]2[C@H]3C4=C(C[C@H]([C@H](C#N)N12)N3C)C(=O)C(C)=C(OC)C4=O`
1.32

Query: log10 of IC50; subject: `C/C=C(/C)C(=O)OC[C@H]1c2c(O)c(OC)c(C)c(OC(=O)c3ccc4ncccc4c3)c2C[C@H]2[C@H]3C4=C(C[C@H]([C@H](C#N)N12)N3C)C(=O)C(C)=C(OC)C4=O`
1.73
